test system: Enterococcus sp.; test: in vitro antibacterial evaluation, MIC by broth dilution; assay type: cell-based; conditions: broth dilution, 18 hours at 35° C.; strain GC 4554
Square brackets hold non-standard residues; d marks the D form. Peptide text beside a SMILES is read from it. * marks the point of attachment. ξ: configuration not given here. ξEnduracididine(βξ-OH,4'ξ) = N=C1NCC(C(O)C(N)C(=O)O)N1; X2 = OCC1OC(OC2C(CO)OC(*)C(O)C2O)C(O)C(O)C1O

molecule: CC(c1ccccc1)C1NC(=O)CNC(=O)C(CO[Si](C)(C)C(C)(C)C)NC(=O)C(C(O)C2CNC(=N)N2C2OC3COC(C)(C)OC3C3OC(C)(C)OC32)NC(=O)C(C(O)C2CNC(=N)N2)NC(=O)C(Cc2ccc(O)cc2)NC1=O (stereo not drawn)
operator_symbol: =
MIC Enterococcus faecalis (GC 4554) [µg/mL]: 64
--
molecule: CC(c1ccccc1)C1NC(=O)CNC(=O)C(CO)NC(=O)C(C(O)C2CNC(=N)N2C2OC(CO)C(O)C(O)C2O)NC(=O)C(C(O)C2CNC(=N)N2)NC(=O)C(Cc2ccc(OC3OC(CO)C(OC4OC(CO)C(O)C5OC(CC67CC8CC(CC(C8)C6)C7)OC45)C(O)C3O)cc2)NC1=O (stereo not drawn)
operator_symbol: =
MIC Enterococcus faecalis (GC 4554) [µg/mL]: 4
--
molecule: CC(c1ccc(F)cc1)C1NC(=O)CNC(=O)C(CO)NC(=O)C(C(O)C2CNC(=N)N2C2OC(CO)C(O)C(O)C2O)NC(=O)C(C(O)C2CNC(=N)N2)NC(=O)C(Cc2ccc(OC3OC(CO)C(OC4OC(CO)C(O)C(O)C4O)C(O)C3O)cc2)NC1=O (stereo not drawn) [Example 261a]
operator_symbol: >
MIC Enterococcus faecalis (GC 4554) [µg/mL]: 64
--
molecule: COc1ccc(COCC2OC(OC3C(CO)OC(Oc4ccc(CC5NC(=O)C(C(C)c6ccccc6)NC(=O)CNC(=O)C(CO)NC(=O)C(C(O)C6CNC(=N)N6C6OC(CO)C(O)C(O)C6O)NC(=O)C(C(O)C6CNC(=N)N6)NC5=O)cc4)C(O)C3O)C(O)C(O)C2O)cc1OCc1ccccc1 (stereo not drawn)
operator_symbol: =
MIC Enterococcus faecalis (GC 4554) [µg/mL]: 4
--
molecule: CC(c1ccccc1)C1NC(=O)CNC(=O)C(CO)NC(=O)C(C(O)C2CNC(=N)N2C2OC(CO)C(O)C(O)C2O)NC(=O)C(C(O)C2CNC(=N)N2)NC(=O)C(Cc2ccc(OC3OC(CO)C(OC4OC5COC(Cc6ccc(Cl)cc6)OC5C(O)C4O)C(O)C3O)cc2)NC1=O (stereo not drawn)
operator_symbol: =
MIC Enterococcus faecalis (GC 4554) [µg/mL]: 1
--
molecule: N=C1NCC(C(O)C2NC(=O)C(Cc3ccc(OC4OC(CO)C(OC5OC(CO)C(O)C(O)C5O)C(O)C4O)cc3)NC(=O)C(Cc3ccccc3)NC(=O)CNC(=O)C(CO)NC(=O)C(C(O)C3CNC(=N)N3)NC2=O)N1 (stereo not drawn) [Example 296] (cyclo(GFY(X2)[ξEnduracididine(βξ-OH,4'ξ)][ξEnduracididine(βξ-OH,4'ξ)]S); configuration not given here)
operator_symbol: >
MIC Enterococcus faecalis (GC 4554) [µg/mL]: 128
--
molecule: CC(c1ccccc1)C1NC(=O)CNC(=O)C(CO)NC(=O)C(C(O)C2CNC(=N)N2C2OC(CO)C(O)C(O)C2O)NC(=O)C(C(O)C2CNC(=N)N2)NC(=O)C(Cc2ccc(OC3OC(CO)C(OC4OC5COC(c6ccccc6)OC5C(O)C4O)C(O)C3O)cc2)NC1=O (stereo not drawn)
operator_symbol: =
MIC Enterococcus faecalis (GC 4554) [µg/mL]: 4
--
molecule: CC(C)CC(=O)OC1C(OC2C(CO)OC(Oc3ccc(CC4NC(=O)C(C(C)c5cccs5)NC(=O)CNC(=O)C(CO)NC(=O)C(C(O)C5CNC(=N)N5C5OC(CO)C(O)C(O)C5O)NC(=O)C(C(O)C5CNC(=N)N5)NC4=O)cc3)C(O)C2O)OC(CO)C(O)C1O (stereo not drawn) [Example 265a]
operator_symbol: >
MIC Enterococcus faecalis (GC 4554) [µg/mL]: 64
--
molecule: COc1ccc2cc(COCC3OC(OC4C(CO)OC(Oc5ccc(CC6NC(=O)C(C(C)c7ccccc7)NC(=O)CNC(=O)C(CO)NC(=O)C(CC7CNC(=N)N7C7OC(CO)C(O)C(O)C7O)NC(=O)C(CC7CNC(=N)N7)NC6=O)cc5)C(O)C4O)C(O)C(O)C3O)ccc2c1 (stereo not drawn)
operator_symbol: =
MIC Enterococcus faecalis (GC 4554) [µg/mL]: 32
